Can you tell me ka for the items I'm about to list?
# SYSTEM_NAME: T1, Human in house BCMA (Homo sapiens, UniProt Q02223)
# T1 construct: CD33 signal peptide (N); TEV site (internal); Fc (C); made in house
# METHOD_DESCRIPTION: ProteOn analysis of CA8 chimeric and humanised constructs, human in house BCMA
# Assay type: binding
# EXPERIMENTAL_CONDITIONS: Run 1, Human in house BCMA, ProteOn, 25° C.; in M-1s-1 (unit assumed)

INSERT INTO results (molecule, test_result) VALUES
  ('CA8 humanised J3M2: humanised CA8 anti-BCMA antibody, VH J3 (SEQ ID NO:17) + VL M2 (SEQ ID NO:35) (antibody, V domains shown, Humansed antibody sequence) VH: QVQLVQSGAEVKKPGSSVKVSCKGSGYTFTNYWMHWVRQAPGQGLEWMGATYRGHSDTYYNQKFKGRVTITADTSTSTAYMELSSLRSEDTAVYYCTRGAIYNGYDVLDNWGQGTLVTVSS VL: DIQLTQSPSSLSASVGDRVTITCSASQDISNYLNWYQQKPGKAPELVIYYTSNLHSGVPSRFSGSGSGTDYTLTISSLQPEDFATYYCQQYRKLPWTFGQGTKLEIKR', '2.66E+05');

I would be grateful if you could share the reported ka for S307118G03 humanised H3L1: humanised S307118G03, VH H3 (SEQ ID NO:83) + VL L1 (SEQ ID NO:91) (antibody, V domains shown, Humansed antibody sequence) VH: QVQLVQSGAEVKKPGSSVKVSCKASGYTFTDYYMKWVRQAPGQGLEWIGEIYPNNGGITYNQKFKGRATLTVDKSTSTAYMELSSLRSEDTAVYYCANGYEFVYWGQGTLVTVSS VL: DIQMTQSPSSLSASVGDRVTITCSASQGISNYLNWYQQKPGKAPKLLIYYTSSLHSGVPSRFSGSGSGTDYTLTISSLQPEDFATYYCQQYSKLPWTFGQGTKLEIKR .
4.69E+05
